Values compiled from the supplement of paper PMC10011410.

system: U-2 OS; assay: relative cell count vs DMSO (cell painting) (fraction of DMSO control); higher = more cells remaining (less cytotoxic); conditions: 5 µM; 24 h
Listing of entries alongside the reported relative cell count.

Input line: Look up relative cell count: COc1ccc(/C(Cl)=C(\C=O)c2ccc(OC)cc2)cc1
Output line: 0.987

----------
system: U-2 OS; assay: relative cell count vs DMSO (cell painting) (fraction of DMSO control); higher = more cells remaining (less cytotoxic); conditions: 1.25 µM; 24 h
measured parameter: relative cell count

Input line: Look up relative cell count: O=c1c(O)c(-c2ccc(O)c(O)c2)oc2cc(O)cc(O)c12
Output line: 0.982

Input line: Look up relative cell count: C=C1C(=O)O[C@H](CCC)[C@H]1C(=O)O
Output line: 1.04

Input line: Look up relative cell count: Oc1cccc(O)c1O
Output line: 0.998

Input line: Look up relative cell count: CC(C)(C)c1cc(O)ccc1O
Output line: 0.958

Input line: Look up relative cell count: O=C(NNS(=O)(=O)c1ccccc1)c1cc(-c2ccnnc2)ccc1F
Output line: 0.95

Input line: Look up relative cell count: CN(N=O)C(=O)N[C@@H]1[C@@H](O)[C@H](O)[C@@H](CO)O[C@@H]1O
Output line: 0.929

Input line: Look up relative cell count: CCN(CC)CCNC(=O)c1c(C)[nH]c(/C=C2\C(=O)Nc3ccc(F)cc32)c1C
Output line: 0.945

----------
tested on: U-2 OS; assay: cell painting activity score (Mahalanobis distance from DMSO wells); higher = stronger morphological phenotype; conditions: 5 µM; 24 h
measured parameter: cell painting activity score
Lab note: record the figure alone, no unit after it.

line notation	cell painting activity score
O=C(OCC)/C(C(OCC)=O)=C\CCCCCCCCCCCCCC	5.06
COC1=C(OC)C(=O)c2ccccc2C1=O	18.9

Input line: Look up cell painting activity score: Nc1nc(-c2ccccc2)[n+](-c2ccccc2)s1
Output line: 3.42

Input line: Look up cell painting activity score: C=CC(=O)Nc1cc2c(Nc3ccc(F)c(Cl)c3)ncnc2cc1OC
Output line: 7.6

Input line: Look up cell painting activity score: C[C@]12O[C@H](C[C@]1(O)CO)n1c3ccccc3c3c4c(c5c6ccccc6n2c5c31)CNC4=O
Output line: 23.1

Input line: Look up cell painting activity score: CC(C)C[C@H](NC(=O)[C@H](CCc1ccccc1)NC(=O)CN1CCOCC1)C(=O)N[C@@H](Cc1ccccc1)C(=O)N[C@@H](CC(C)C)C(=O)[C@@]1(C)CO1
Output line: 31.5

Input line: Look up cell painting activity score: CN[C@@H]1C[C@H]2O[C@@](C)([C@@H]1OC)n1c3ccccc3c3c4c(c5c6ccccc6n2c5c31)C(=O)NC4
Output line: 25.5

Input line: Look up cell painting activity score: CC1(C)CC[C@]2(C(=O)n3ccnc3)CC[C@]3(C)[C@H](C(=O)C=C4[C@@]5(C)C=C(C#N)C(=O)C(C)(C)[C@@H]5CC[C@]43C)[C@@H]2C1
Output line: 33.9

----------
tested on: U-2 OS; experiment: relative cell count vs DMSO (cell painting) (fraction of DMSO control); higher = more cells remaining (less cytotoxic); conditions: 5 µM; 24 h
Listing of entries alongside the reported relative cell count.
Lab note: record the figure alone, no unit after it.

Please review the following examples before continuing.
line notation	relative cell count
C=C(C)[C@H]1Cc2c(ccc3c2O[C@@H]2COc4cc(OC)c(OC)cc4[C@@H]2C3=O)O1	0.349
c1ccc(Nc2nc(-c3ccccc3)ns2)cc1	0.925

Below: the item to evaluate.
Input line: Look up relative cell count: COc1cc([C@@H]2c3cc4c(cc3[C@H](O)[C@H]3COC(=O)[C@H]23)OCO4)cc(OC)c1OC
Output line: 0.199

----------
test system: U-2 OS; test: relative cell count vs DMSO (cell painting) (fraction of DMSO control); higher = more cells remaining (less cytotoxic); settings: 1.25 µM; 24 h
measured parameter: relative cell count
Lab note: record the figure alone, no unit after it.

Please review the following examples before continuing.
compound	study target	relative cell count
O=C([O-])C(=O)[O-].[NH-][C@@H]1CCCC[C@H]1[NH-].[Pt+4]	U-2 OS	0.786
Oc1cc(O)cc(/C=C/c2ccc(O)c(O)c2)c1	U-2 OS	1.01
CC(C)C[C@@H](C=O)NC(=O)[C@@H](CC(C)C)NC(=O)[C@H](CC(C)C)NC(=O)OCc1ccccc1	U-2 OS	0.959

Below: the item to evaluate.
Input line: Look up relative cell count: O=C1O[C@H]2[C@@H]3OC(=O)c4cc(O)c(O)c(O)c4-c4c(O)c(O)c5oc(=O)c6c(c(O)c(O)c7oc(=O)c4c5c76)-c4c(cc(O)c(O)c4O)C(=O)OC[C@H]3OC(O)[C@@H]2OC(=O)c2cc(O)c(O)c(O)c2-c2c1cc(O)c(O)c2O (stereo not given in full)
Output line: 1

----------
system: U-2 OS; assay: relative cell count vs DMSO (cell painting) (fraction of DMSO control); higher = more cells remaining (less cytotoxic); conditions: 1.25 µM; 24 h
measured parameter: relative cell count

Please review the following examples before continuing.
molecule	study target	measured parameter	value reported
Cn1c(SC2=CS(=O)(=O)c3ccccc32)nnc1-c1ccc(O)cc1	U-2 OS	relative cell count	0.993
CC(C)([C@](C1=O)(C2=O)C/C=C(C)\C)[C@@H](C[C@]31C[C@@H](C(C)(OC3=C2C(C4=CC(O)=C(C=C4)O)=O)C)C/C=C(C)\C)C/C=C(C)\C	U-2 OS	relative cell count	1.12
O=C(CCCCCCC(=O)Nc1ccccc1)NO	U-2 OS	relative cell count	0.936
O=C(CSC1CC(=O)N(c2cccc(Cl)c2)C1=O)Nc1ccc(Br)cc1 (stereo not given)	U-2 OS	relative cell count	1.13

Below: the item to evaluate.
Input line: Look up relative cell count: Cn1ncnc2c(=O)n(C)c(=O)nc1-2
Output line: 0.386

----------
test system: U-2 OS; assay: cell painting activity score (Mahalanobis distance from DMSO wells); higher = stronger morphological phenotype; conditions: 2.5 µM; 24 h
measured parameter: cell painting activity score
Lab note: record the figure alone, no unit after it.

Please review the following examples before continuing.
compound	value reported
CC1(C)[C@@H](O[C@H]2O[C@H](C(=O)O)[C@@H](O)[C@H](O)[C@H]2O[C@@H]2O[C@H](C(=O)O)[C@@H](O)[C@H](O)[C@H]2O)CC[C@]2(C)[C@H]3C(=O)C=C4[C@@H]5C[C@@](C)(C(=O)O)CC[C@]5(C)CC[C@@]4(C)[C@]3(C)CC[C@@H]12.N	5.85
CCOc1cc2ncc(C#N)c(Nc3ccc(OCc4ccccn4)c(Cl)c3)c2cc1NC(=O)/C=C/CN(C)C	14.6
O=C([O-])C(=O)[O-].[NH-][C@@H]1CCCC[C@H]1[NH-].[Pt+4]	20.4
CCCCCOc1ccc(/C=C\c2cccc(O)c2C(=O)O)cc1	3.23
C=C(C)[C@@H](CC=C(C)C)C[C@@]12C[C@@H](CC=C(C)C)C(C)(C)[C@@](CC=C(C)C)(C(=O)/C(=C(\O)c3ccc(O)c(O)c3)C1=O)C2=O	6.25

Input line: Look up cell painting activity score: COc1ccc(N(C(=O)CCl)C(C(=O)NCCc2ccccc2)c2cccs2)cc1Cl (stereo unspecified)
Output line: 11.4

Input line: Look up cell painting activity score: CC1=CC(=O)c2ccccc2C1=O
Output line: 4.48

Input line: Look up cell painting activity score: CNC(=O)Nc1ccc2c(c1)CC[C@@]21OC(=O)N(CC(=O)N(Cc2ccc(F)cc2)[C@@H](C)C(F)(F)F)C1=O
Output line: 8.22

----------
tested on: U-2 OS; assay: relative cell count vs DMSO (cell painting) (fraction of DMSO control); higher = more cells remaining (less cytotoxic); conditions: 1.25 µM; 24 h
# cutoff 0.8 applies to relative cell count; >= gives 1, < gives 0

Input line: Is relative cell count for C=CC(=O)Nc1cc2c(Nc3ccc(F)c(Cl)c3)ncnc2cc1OCCCN1CCOCC1 at or above 0.8?
Output line: 0

Input line: Is relative cell count for ClC1=CC=C(C2=CSC(N/N=C3CCCC/3)=N2)C=C1 at or above 0.8?
Output line: 1

Input line: Is relative cell count for O=C1C=C(Cl)C(=O)c2ccccc21 at or above 0.8?
Output line: 0

Input line: Is relative cell count for Cc1ccc(S(=O)(=O)/C=C/C#N)cc1 at or above 0.8?
Output line: 1

Input line: Is relative cell count for CO[C@@H]1[C@H](N(C)C(=O)c2ccccc2)C[C@H]2O[C@]1(C)n1c3ccccc3c3c4c(c5c6ccccc6n2c5c31)C(=O)NC4 at or above 0.8?
Output line: 0

Input line: Is relative cell count for CCOc1ccccc1-n1c(C(C)N2CCN(C(=O)COc3ccc(Cl)cc3)CC2)nc2ccccc2c1=O (configuration not stated) at or above 0.8?
Output line: 1
